Documented LDH release cytotoxicity across a set of compounds
Test system: HepaRG
Assay: LDH release cytotoxicity, % of total lysis control; higher = more cytotoxic
Conditions: 0.0995 µM; 48 h
TEST READOUT: LDH release cytotoxicity (%)

compound="FC(F)C(F)(F)OCC(Cn1cncn1)c1ccc(Cl)cc1Cl (centres undefined) [Tetraconazole]" test_readout="LDH release cytotoxicity" measurement=-2.23
compound="CCCCOC(=O)C(C)Oc1ccc(Oc2ccc(C#N)cc2F)cc1 (centres undefined) [Cyhalofop-butyl]" test_readout="LDH release cytotoxicity" measurement=-1.07
compound="CC1(C)CCC(=Cc2ccc(Cl)cc2)C1(O)Cn1cncn1 (centres undefined) [Triticonazole]" test_readout="LDH release cytotoxicity" measurement=-0.849
compound="CC(C1CC1)C(O)(Cn1cncn1)c1ccc(Cl)cc1 (centres undefined) [Cyproconazole]" test_readout="LDH release cytotoxicity" measurement=-2.41

Measured values drawn from the supplement of paper PMC7840683 for this set.
